Test system: 429239-143-T-J1-PDC complex spheroid viability
Test: Anticancer human tumor 429239-143-T-J1-PDC patient-derived small cell lung carcinoma cell line growth inhibition [POLQ]; active = viability on the fitted dose curve at most 10% of control; inactive = the rest
Conditions: second compound 0.316 µM; first compound 10 µM
Protocol: Multicellular complex tumor spheroid response to Polymerase (POL) inhibitors (novobiocin, ART-558, RP6685) in combination with a variety of drugs and investigational agents in selected tumor cell lines The POL inhibitors (novobiocin, ART-558, and RP6685) were evaluated both individually and in combination with standard of care and investigational anticancer small molecules within a complex spheroid model of solid tumors. . […]
Possible outcomes: yes (1) for active, no (0) for inactive

| Compound | Classification |
| --- | --- |
| Nc1ccn(C2OC(CO)C(O)C2(F)F)c(=O)n1 (stereo not drawn) + Cc1cccc(N(C)C(=O)C2C(O)CCN2c2nc(C)cc(C(F)(F)F)c2C#N)c1 | no (0) |
| O=C(c1cc(Cc2n[nH]c(=O)c3ccccc23)ccc1F)N1CCN(C(=O)C2CC2)CC1 + Nc1ccc(C#CCN(C(=O)Cc2ncc(C(F)(F)F)cc2C(F)(F)F)c2ccc(F)cc2)nn1 | yes (1) |
| COc1cc(C2c3cc4c(cc3C(OC3OC5COC(C)OC5C(O)C3O)C3COC(=O)C23)OCO4)cc(OC)c1O (stereo not drawn) + COC1C(OC(N)=O)C(O)C(Oc2ccc3c(O)c(NC(=O)c4ccc(O)c(CC=C(C)C)c4)c(=O)oc3c2C)OC1(C)C | no (0) |
| CC1COCCN1c1cc(-c2ccnn2C)c2ccnc(-c3ccn[nH]3)c2n1 (stereo not drawn) + Nc1ccc(C#CCN(C(=O)Cc2ncc(C(F)(F)F)cc2C(F)(F)F)c2ccc(F)cc2)nn1 | yes (1) |
| CCCS(=O)(=O)Nc1ccc(F)c(C(=O)c2c[nH]c3ncc(-c4ccc(Cl)cc4)cc23)c1F + COC1C(OC(N)=O)C(O)C(Oc2ccc3c(O)c(NC(=O)c4ccc(O)c(CC=C(C)C)c4)c(=O)oc3c2C)OC1(C)C | no (0) |
| COc1ccc([C@@H](O)c2cc(-c3ncnc4cc(N5CCOCC5)ccc34)c(F)cc2Cl)nn1 + COC1C(OC(N)=O)C(O)C(Oc2ccc3c(O)c(NC(=O)c4ccc(O)c(CC=C(C)C)c4)c(=O)oc3c2C)OC1(C)C | yes (1) |
| O=c1[nH]cc(F)c(=O)[nH]1 + Nc1ccc(C#CCN(C(=O)Cc2ncc(C(F)(F)F)cc2C(F)(F)F)c2ccc(F)cc2)nn1 | no (0) |
| C=CC(=O)N1CCN(c2nc(=O)n(-c3c(C)ccnc3C(C)C)c3nc(-c4c(O)cccc4F)c(F)cc23)C(C)C1 (stereo not drawn) + Nc1ccc(C#CCN(C(=O)Cc2ncc(C(F)(F)F)cc2C(F)(F)F)c2ccc(F)cc2)nn1 | no (0) |
| Nc1ccn(C2OC(CO)C(O)C2(F)F)c(=O)n1 (stereo not drawn) + COC1C(OC(N)=O)C(O)C(Oc2ccc3c(O)c(NC(=O)c4ccc(O)c(CC=C(C)C)c4)c(=O)oc3c2C)OC1(C)C | no (0) |
| CCCS(=O)(=O)Nc1ccc(F)c(C(=O)c2c[nH]c3ncc(-c4ccc(Cl)cc4)cc23)c1F + Nc1ccc(C#CCN(C(=O)Cc2ncc(C(F)(F)F)cc2C(F)(F)F)c2ccc(F)cc2)nn1 | no (0) |
| COc1cccc2c1C(=O)c1c(O)c3c(c(O)c1C2=O)CC(O)(C(=O)CO)CC3OC1CC(N)C(O)C(C)O1 (stereo not drawn) + Nc1ccc(C#CCN(C(=O)Cc2ncc(C(F)(F)F)cc2C(F)(F)F)c2ccc(F)cc2)nn1 | yes (1) |
| CNCc1ccc(-c2[nH]c3cc(F)cc4c3c2CCNC4=O)cc1 + COC1C(OC(N)=O)C(O)C(Oc2ccc3c(O)c(NC(=O)c4ccc(O)c(CC=C(C)C)c4)c(=O)oc3c2C)OC1(C)C | no (0) |
| CC1COCCN1c1cc(-c2ccnn2C)c2ccnc(-c3ccn[nH]3)c2n1 (stereo not drawn) + COC1C(OC(N)=O)C(O)C(Oc2ccc3c(O)c(NC(=O)c4ccc(O)c(CC=C(C)C)c4)c(=O)oc3c2C)OC1(C)C | yes (1) |
| CC1COCCN1c1cc(C2(S(C)(=N)=O)CC2)nc(-c2ccnc3[nH]ccc23)n1 (stereo not drawn) + Cc1cccc(N(C)C(=O)C2C(O)CCN2c2nc(C)cc(C(F)(F)F)c2C#N)c1 | no (0) |
| CC(C)n1c(=O)n(C)c2cnc3cc(F)c(-c4ccc(OCCCN5CCCCC5)nc4)cc3c21 + Nc1ccc(C#CCN(C(=O)Cc2ncc(C(F)(F)F)cc2C(F)(F)F)c2ccc(F)cc2)nn1 | no (0) |
| COc1cc(C2c3cc4c(cc3C(OC3OC5COC(C)OC5C(O)C3O)C3COC(=O)C23)OCO4)cc(OC)c1O (stereo not drawn) + Nc1ccc(C#CCN(C(=O)Cc2ncc(C(F)(F)F)cc2C(F)(F)F)c2ccc(F)cc2)nn1 | yes (1) |
| CC1COCCN1c1cc(C2(O)CC3CCC(C2)O3)c2cnn(-c3ccn[nH]3)c2n1 (stereo not drawn) + COC1C(OC(N)=O)C(O)C(Oc2ccc3c(O)c(NC(=O)c4ccc(O)c(CC=C(C)C)c4)c(=O)oc3c2C)OC1(C)C | yes (1) |
| CC1COCCN1c1cc(C2(S(C)(=N)=O)CC2)nc(-c2ccnc3[nH]ccc23)n1 (stereo not drawn) + Nc1ccc(C#CCN(C(=O)Cc2ncc(C(F)(F)F)cc2C(F)(F)F)c2ccc(F)cc2)nn1 | no (0) |
| CC(C)n1c(=O)n(C)c2cnc3cc(F)c(-c4ccc(OCCCN5CCCCC5)nc4)cc3c21 + Cc1cccc(N(C)C(=O)C2C(O)CCN2c2nc(C)cc(C(F)(F)F)c2C#N)c1 | no (0) |
| O=C(Nc1ccc(O)c(NS(=O)(=O)c2ccc(F)cc2)c1)c1ccc(-c2ccccc2)cc1 + Nc1ccc(C#CCN(C(=O)Cc2ncc(C(F)(F)F)cc2C(F)(F)F)c2ccc(F)cc2)nn1 | no (0) |
| COc1cccc2c1C(=O)c1c(O)c3c(c(O)c1C2=O)CC(O)(C(=O)CO)CC3OC1CC(N)C(O)C(C)O1 (stereo not drawn) + Cc1cccc(N(C)C(=O)C2C(O)CCN2c2nc(C)cc(C(F)(F)F)c2C#N)c1 | yes (1) |
| CCc1cc2c(N3CCc4c(cc(Cn5ccnc5)cc4-c4cn(C)nc4C(F)(F)F)C3=O)cc(C)nc2c(OC)n1 + Cc1cccc(N(C)C(=O)C2C(O)CCN2c2nc(C)cc(C(F)(F)F)c2C#N)c1 | no (0) |
| COc1ccc([C@@H](O)c2cc(-c3ncnc4cc(N5CCOCC5)ccc34)c(F)cc2Cl)nn1 + Cc1cccc(N(C)C(=O)C2C(O)CCN2c2nc(C)cc(C(F)(F)F)c2C#N)c1 | no (0) |

* * *

test system: 429239-143-T-J1-PDC complex spheroid viability; test: Anticancer human tumor 429239-143-T-J1-PDC cell line growth inhibition [POLQ]; conditions: second compound 1 µM; first compound 1 µM; active compounds read low;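 note: luminescence signal used as surrogate measure of viable cells; spheroids exposed to compounds for seven days before readout; 100% = DMSO vehicle control viability as luminescence relative to vehicle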
Lab note: anything with viability, T/C below 80% is marked rule met; values at 80% or higher are marked rule not met.

| Molecule | Classification |
| --- | --- |
| COc1cccc2c1C(=O)c1c(O)c3c(c(O)c1C2=O)CC(O)(C(=O)CO)CC3OC1CC(N)C(O)C(C)O1 (stereo not given) + COC1C(OC(N)=O)C(O)C(Oc2ccc3c(O)c(NC(=O)c4ccc(O)c(CC=C(C)C)c4)c(=O)oc3c2C)OC1(C)C | rule met |
| O=C(Nc1ccc(O)c(NS(=O)(=O)c2ccc(F)cc2)c1)c1ccc(-c2ccccc2)cc1 + Cc1cccc(N(C)C(=O)C2C(O)CCN2c2nc(C)cc(C(F)(F)F)c2C#N)c1 | rule not met |
| Nc1ccn(C2OC(CO)C(O)C2(F)F)c(=O)n1 (stereo not given) + Nc1ccc(C#CCN(C(=O)Cc2ncc(C(F)(F)F)cc2C(F)(F)F)c2ccc(F)cc2)nn1 | rule met |
| C=CCn1c(=O)c2cnc(Nc3ccc(N4CCN(C)CC4)cc3)nc2n1-c1cccc(C(C)(C)O)n1 + COC1C(OC(N)=O)C(O)C(Oc2ccc3c(O)c(NC(=O)c4ccc(O)c(CC=C(C)C)c4)c(=O)oc3c2C)OC1(C)C | rule met |
| C=CC(=O)N1CCN(c2nc(=O)n(-c3c(C)ccnc3C(C)C)c3nc(-c4c(O)cccc4F)c(F)cc23)C(C)C1 (stereo not given) + COC1C(OC(N)=O)C(O)C(Oc2ccc3c(O)c(NC(=O)c4ccc(O)c(CC=C(C)C)c4)c(=O)oc3c2C)OC1(C)C | rule not met |
| COc1ccc([C@@H](O)c2cc(-c3ncnc4cc(N5CCOCC5)ccc34)c(F)cc2Cl)nn1 + Nc1ccc(C#CCN(C(=O)Cc2ncc(C(F)(F)F)cc2C(F)(F)F)c2ccc(F)cc2)nn1 | rule not met |
| C=CC(=O)N1CCN(c2nc(=O)n(-c3c(C)ccnc3C(C)C)c3nc(-c4c(O)cccc4F)c(F)cc23)C(C)C1 (stereo not given) + Cc1cccc(N(C)C(=O)C2C(O)CCN2c2nc(C)cc(C(F)(F)F)c2C#N)c1 | rule not met |
| COc1cccc(OCCCN)c1-c1cc(Nc2cnc(C#N)cn2)n[nH]1 + Cc1cccc(N(C)C(=O)C2C(O)CCN2c2nc(C)cc(C(F)(F)F)c2C#N)c1 | rule met |
